B1: C1orf137 (parent)
chain: LPQETNLTLKVCKPQAPQKLDPTL

variants of: B1; test: protein stability index of a GFP-peptide fusion (GPS, HEK-293T) (PSI 1-6); higher = more stable; details: c terminus: a fixed tail appended;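 further: lentivirally expressed fusions sorted by FACS into six bins by GFP to DsRed ratio, PSI derived from sequencing read proportions per bin multiplied by bin number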
PARAMETER: protein stability index
No unit in the answer, only the number.

In the examples that follow, each entry is paired with its recorded protein stability index.
variant_notation=P17Y assay_value=3.57
variant_notation=T23E assay_value=4.91
variant_notation=K10S assay_value=4.01
variant_notation=P14A assay_value=3.59
variant_notation=K10P assay_value=4.17
variant_notation=Q18V assay_value=3.56
variant_notation=L24V assay_value=4.52
variant_notation=D21L assay_value=2.44

Now, please, on to the next variant.
Task item: So what does the record say about protein stability index for A16I ?
Reply: 3.56
